B1: CAMK2A (parent)
chain: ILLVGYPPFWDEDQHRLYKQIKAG

- Variants of: B1
- assay method text: protein stability index of a GFP-peptide fusion (GPS, HEK-293T) (PSI 1-6); higher = more stable;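 further: lentivirally expressed fusions sorted by FACS into six bins by GFP to DsRed ratio, PSI derived from sequencing read proportions per bin multiplied by bin number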
- details: c terminus: a fixed tail appended

mutation name: Y18S
protein stability index: 1.95
--
mutation name: E12L
protein stability index: 1.95
--
mutation name: Q14I
protein stability index: 2.05
--
mutation name: W10V
protein stability index: 2.05
